Entry source: patent US20240327502A1

# System name: T1, Unprocessed hMPV PreF trimer (human metapneumovirus, strain B2)
# T1 construct: also called Unprocessed hMPV WT PreF trimer; unprocessed hMPV PreF trimeric antigen
# Procedure text: BLI, mAb on anti-human Fc sensor
Recorded Octet binding response by entry

Binder: M2E04 (antibody, V domains shown, IgG) VH: QVQLQESGPGLVKPSEILSLTCTVSRFSINSGYYWGWIRQPPGKGLEWIGCISHAGSIYSNPSLESRVTLSLDTSKNQFSLKLTSVIAADTATYYCAASSNWHNALEYWGQGTLVVVSS VL: QSVLTQPPSASGTPGQTVTISCSGSRSNMGINWVYWYQQLPGTAPKLVIYRNSQRPSGVPDRFSGSQSGTSASLAISGLRSEDEAVYYCAVWDDSLDGRLFGGGTKLTVL
Octet binding response [nm]: 0.391
//
Binder: M3E09 (antibody, V domains shown, IgG) VH: EVQLVESGGGVVRPGGSLRLSCAASGFRFDDYAMNWVRQAPGKGLEWVSGINWIGGTTKYADSVKGRFTISRDNTKNSLYLQMNSLRAEDTALYYCARGVGYYYYYMDVWGRGTTVTVSS VL: EIVLTQSPGTLSLSPGERATLSCRATQSVSSNYLAWYQQKPGQAPRLLIYDASSRAIGIPDRFSGSGSGTDFTLTISRLESEDFAVYYCQQYGSSPETFGQGTKVEIK
Octet binding response [nm]: 0.226
//
Binder: M2B04 (antibody, V domains shown, IgG) VH: QVQLVQSGPEVKKPGASVKVSCKASGYSITTYGIDWVRQAPGQGLEWIGWSSAHTGNTNYAEKFQGRVTMTTDTSTYTTYMELRSLKSDDTAVYYCAMGAYTSSRNWFDPWGQGTLVIVSS VL: EIVLTQSPATLSLSPGERATLSCRASQNINNFLAWYQQKAGQAPRLLIYDASNRATGIPGRFSGSGSGTDFTLTISSLEPEDFAVYYCQQRANWPLTFGGGTKVEVK
Octet binding response [nm]: 0.328
//
Binder: M2D02 (antibody, V domains shown, IgG) VH: QVQLVQSGAEVKKPGSSVKVSCKASGGTLTRYTISWVRQAPGQGLEWMGRIIPFLDIANYAPRFQGRVTMTADKSTSTAYMELSSLTSQDTAIYYCARDHSGNYFDLWGQGTLVTVSS VL: EIVMTQSPATLSVSPGERATLSCRASQSVTSNLAWYQRKPGQAPRLLIYGASTGATDIPGRFSGSGSGTEFTLTISGLQSEDFAVYYCQQYDHWPRTFGQGTKVEIK
Octet binding response [nm]: 0.216
//
Binder: M4C04 (antibody, V domains shown, IgG) VH: RVTLRESGPALLKPTQTLTLTCTFSGFSLNTYGMSVNWIRQPPGKALEWLSRIDWDGDKYFNTSLKTRLTISKDTSKNQVVLTMTNMEPVDTATYYCAQSVIVPAQSFVSWFDPWGPGTLVTVSS VL: EIVMTQSPATLSVSPGERATLSCRASQSVRSNLAWYQQKPGQAPRLLIYGASSRATGIPARFSGSGSGTEFTLTISSLQSEDLAIYYCQQYNNWPPGAFGQGTKVEIK
Octet binding response [nm]: 0.342
